Target Of Assay: fused protein of DNA-binding domain of yeast transcription factor with ligand-binding domain of human type PPAR α (Homo sapiens)
Sequence (Q07869 239-466 limits assumed): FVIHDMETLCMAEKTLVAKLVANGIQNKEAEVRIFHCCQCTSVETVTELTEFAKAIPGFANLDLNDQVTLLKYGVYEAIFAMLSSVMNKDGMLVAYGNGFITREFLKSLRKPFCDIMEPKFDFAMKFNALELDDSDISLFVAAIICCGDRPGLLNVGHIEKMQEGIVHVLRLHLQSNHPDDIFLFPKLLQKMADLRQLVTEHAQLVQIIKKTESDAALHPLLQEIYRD
Measurement Notes: Test of transactivation on peroxisome proliferator-activated receptor α (CHO cells, reporter assay)
Property: pEC50
When answering, recall that pEC50 equals minus log10 of the concentration in mol/L, and write that number alone.

Give reported pEC50 value for COc1ccc(CC2SC(=O)NC2=O)cc1C(=O)NCc1cccnc1 (stereo not shown)
6.38

Give reported pEC50 value for COc1ccc(CC2SC(=O)NC2=O)cc1C(=O)NCC1CCCCC1 (stereo not shown)
6.52

Give reported pEC50 value for COc1ccc(CC2SC(=O)NC2=O)cc1C(=O)NCc1ccncc1 (stereo not shown)
6.63

Give reported pEC50 value for COc1ccc(CC2SC(=O)NC2=O)cc1C(=O)NCc1ccccn1 (stereo not shown)
6.45
